Biological target: UniProt P56817
Sequence (P56817 whole entry): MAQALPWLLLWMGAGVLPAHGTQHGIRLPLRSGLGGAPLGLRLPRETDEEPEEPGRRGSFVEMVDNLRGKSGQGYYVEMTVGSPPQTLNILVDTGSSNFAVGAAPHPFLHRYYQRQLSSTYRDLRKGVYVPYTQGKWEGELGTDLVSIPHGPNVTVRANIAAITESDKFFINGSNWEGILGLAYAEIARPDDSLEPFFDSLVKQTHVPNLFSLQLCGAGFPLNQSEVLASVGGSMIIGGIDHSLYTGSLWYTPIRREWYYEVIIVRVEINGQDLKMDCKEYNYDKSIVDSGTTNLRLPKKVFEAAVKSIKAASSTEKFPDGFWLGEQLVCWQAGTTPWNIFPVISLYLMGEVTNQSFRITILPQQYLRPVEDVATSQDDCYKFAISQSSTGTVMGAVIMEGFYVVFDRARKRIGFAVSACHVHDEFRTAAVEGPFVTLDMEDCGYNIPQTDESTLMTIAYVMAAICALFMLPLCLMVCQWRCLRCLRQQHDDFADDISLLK
Test: Inhibition of human recombinant BACE-1 expressed in Escherichia coli using panvera peptide as a substrate incubated for 1 hr by fluorescence analysis
Quantity Kind: IC50 (µM)
Answer in µM, number only, no unit symbol.

{"columns": ["Compound", "Study System", "Reading Unit", "IC50"],
 "data": [
  ["CC1=CC2Cc3nc4cc(Cl)ccc4c(NCCCCCCCCCNS(=O)(=O)c4cn[nH]c4)c3C(C1)C2 (configuration not stated)", "UniProt P56817", "µM", 10.8]
]}

Please turn your attention to the following entry.
q: For the compound shown here, CC1=CC2Cc3nc4cc(Cl)ccc4c(NCCCCCCCCCNC(=O)c4cc(O)cc(O)c4)c3C(C1)C2 (configuration not stated) , give the reported IC50.
a: 2.71

###

Experiment: Kinetic solubility of the compound in DMSO/PBS buffer measured after 2 hrs by nephalometric analysis
Format: physicochemical
Conditions: DMSO/PBS buffer, read-out: Kinetic_solubility
Each entry below carries its recorded solubility kinetic at 2 h.
// note: answer is a bare numeric in µg/mL

q: Requested read-out: solubility kinetic at 2 h. Entry: CC1=CC2Cc3nc4cc(Cl)ccc4c(NCCCCCCCCC(=O)Nc4cn[nH]c4)c3C(C1)C2 (configuration not stated)
a: 9.3

q: // returns reported solubility kinetic at 2 h for input COc1cc(CNC(=O)CCCCCCCCNc2c3c(nc4cc(Cl)ccc24)CC2C=C(C)CC3C2)ccn1 (configuration not stated)
a: 5.1

q: Please report the recorded solubility kinetic at 2 h for CC1=CC2Cc3nc4cc(Cl)ccc4c(NCCCCCCCCC(=O)NCc4cc[nH]c(=O)c4)c3C(C1)C2 (configuration not stated) .
a: 13.8

q: Field request: solubility kinetic at 2 h | item: CC1=CC2Cc3nc4cc(Cl)ccc4c(NCCCCCCCCCNC(=O)c4cc(O)cc(O)c4)c3C(C1)C2 (configuration not stated)
a: 10.8

q: Need solubility kinetic at 2 h of CC1=CC2Cc3nc4cc(Cl)ccc4c(NCCCCCCCCCNS(=O)(=O)c4cn[nH]c4)c3C(C1)C2 (configuration not stated) , thanks.
a: 5.7

q: Endpoint output: solubility kinetic at 2 h of CC1=CC2Cc3nc4cc(Cl)ccc4c(NCCCCCCCCC(=O)N4CCNC(=O)C4)c3C(C1)C2 (configuration not stated) . Value?
a: 43.3

q: Given CC1=CC2Cc3nc4cc(Cl)ccc4c(NCCCCCCCCCNC(=O)c4ccc[nH]c4=O)c3C(C1)C2 (configuration not stated) , state its recorded solubility kinetic at 2 h.
a: 7.7

###

Target: UniProt P05067
Sequence (P05067 whole entry): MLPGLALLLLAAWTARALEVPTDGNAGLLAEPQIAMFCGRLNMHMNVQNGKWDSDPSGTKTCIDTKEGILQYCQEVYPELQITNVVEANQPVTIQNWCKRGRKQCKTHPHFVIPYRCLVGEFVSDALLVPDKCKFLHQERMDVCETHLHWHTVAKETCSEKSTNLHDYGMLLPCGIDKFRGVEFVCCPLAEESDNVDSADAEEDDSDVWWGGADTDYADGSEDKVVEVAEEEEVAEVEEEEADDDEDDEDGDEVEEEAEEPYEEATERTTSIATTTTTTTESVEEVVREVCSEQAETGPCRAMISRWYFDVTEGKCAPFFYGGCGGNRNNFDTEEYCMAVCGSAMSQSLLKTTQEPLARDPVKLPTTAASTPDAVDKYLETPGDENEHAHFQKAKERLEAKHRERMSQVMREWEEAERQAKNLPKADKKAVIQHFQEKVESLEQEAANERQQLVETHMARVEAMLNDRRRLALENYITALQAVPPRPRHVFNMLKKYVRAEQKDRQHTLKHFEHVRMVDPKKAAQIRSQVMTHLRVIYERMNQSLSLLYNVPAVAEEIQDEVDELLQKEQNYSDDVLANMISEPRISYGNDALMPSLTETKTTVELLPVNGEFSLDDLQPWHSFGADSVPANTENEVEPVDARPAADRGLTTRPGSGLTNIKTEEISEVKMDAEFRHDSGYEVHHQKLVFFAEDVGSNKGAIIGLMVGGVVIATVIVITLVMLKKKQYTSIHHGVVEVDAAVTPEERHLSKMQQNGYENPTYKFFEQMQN
Assay: Inhibition of amyloid beta (1 to 42) (unknown origin) aggregation in Escherichia coli BL21 (DE3) at 10 uM incubated overnight by thioflavin S based fluorescence analysis relative to control
This listing pairs compounds with measured inhibition.
Quick note: give the figure in %, leave out the unit.

Recorded results for 3 compounds are shown here.
{"columns": ["Compound", "Study System", "Quantity Kind", "Result Value"],
 "data": [
  ["CC1=CC2Cc3nc4cc(Cl)ccc4c(NCCCCCCCCCNC(=O)c4cc(O)c5c(c4)C(=O)c4cccc(O)c4C5=O)c3C(C1)C2 (centres undefined)", "UniProt P05067", "inhibition", 47.9],
  ["CC1=CC2Cc3nc4cc(Cl)ccc4c(NCCCCCCCCC(=O)Nc4cn[nH]c4)c3C(C1)C2 (centres undefined)", "UniProt P05067", "inhibition", 32.6],
  ["CC1=CC2Cc3nc4cc(Cl)ccc4c(NCCCCCCCCC(=O)N4CCNC(=O)C4)c3C(C1)C2 (centres undefined)", "UniProt P05067", "inhibition", 9.7]
]}

q: Request body: readout inhibition, system UniProt P05067, query COc1cc(CNC(=O)CCCCCCCCNc2c3c(nc4cc(Cl)ccc24)CC2C=C(C)CC3C2)ccn1 (centres undefined) . Return the value.
a: 29.4

q: Lab note: need inhibition for CC[N+](C)(CC)CCC[n+]1c(-c2ccccc2)c2cc(N)ccc2c2ccc(N)cc21 on UniProt P05067, anyone have it?
a: 39.2

q: Request body: readout inhibition, system UniProt P05067, query CC1=CC2Cc3nc4cc(Cl)ccc4c(NCCCCCCCCC(=O)NCc4cc[nH]c(=O)c4)c3C(C1)C2 (centres undefined) . Return the value.
a: 19.9

q: Request body: readout inhibition, system UniProt P05067, query CC1=CC2Cc3nc4cc(Cl)ccc4c(NCCCCCCCCCNC(=O)c4ccc[nH]c4=O)c3C(C1)C2 (centres undefined) . Return the value.
a: 42.3

q: Notebook: pull reported inhibition for UniProt P05067, entry CC1=CC2Cc3nc4cc(Cl)ccc4c(NCCCCCCCCCNC(=O)c4cc(O)cc(O)c4)c3C(C1)C2 (centres undefined)
a: 49.5

q: UniProt P05067 / inhibition / CC1=CC2Cc3nc4cc(Cl)ccc4c(NCCCCCCCCCNS(=O)(=O)c4cn[nH]c4)c3C(C1)C2 (centres undefined) : value?
a: 35.3

###

Molecular target: Acetylcholinesterase (Homo sapiens)
This section presents compounds with their documented pIC50 values.
In simple prose, pIC50 is minus the logarithm base ten of a concentration in moles per litre.

{"columns": ["Compound", "Study System", "pIC50"],
 "data": [
  ["CC1=CC2Cc3nc4cc(Cl)ccc4c(NCCCCCCCCCNS(=O)(=O)c4cn[nH]c4)c3C(C1)C2 (configuration not stated)", "Acetylcholinesterase (Homo sapiens)", 8.62],
  ["CC1=CC2Cc3nc4cc(Cl)ccc4c(NCCCCCCCCCNC(=O)c4ccc[nH]c4=O)c3C(C1)C2 (configuration not stated)", "Acetylcholinesterase (Homo sapiens)", 8.74],
  ["CC1=CC2Cc3nc4cc(Cl)ccc4c(NCCCCCCCCCNC(=O)c4cc(O)cc(O)c4)c3C(C1)C2 (configuration not stated)", "Acetylcholinesterase (Homo sapiens)", 8.59],
  ["CC1=CC2Cc3nc4cc(Cl)ccc4c(NCCCCCCCCC(=O)Nc4cn[nH]c4)c3C(C1)C2 (configuration not stated)", "Acetylcholinesterase (Homo sapiens)", 8.62],
  ["COc1cc(CNC(=O)CCCCCCCCNc2c3c(nc4cc(Cl)ccc24)CC2C=C(C)CC3C2)ccn1 (configuration not stated)", "Acetylcholinesterase (Homo sapiens)", 8.90],
  ["CC1=CC2Cc3nc4cc(Cl)ccc4c(NCCCCCCCCC(=O)N4CCNC(=O)C4)c3C(C1)C2 (configuration not stated)", "Acetylcholinesterase (Homo sapiens)", 9.39]
]}

Let us examine a further case.
q: Form: Entry = CC1=CC2Cc3nc4cc(Cl)ccc4c(NCCCCCCCCC(=O)NCc4cc[nH]c(=O)c4)c3C(C1)C2 (configuration not stated) | System = Acetylcholinesterase (Homo sapiens) | pIC50 = ____
a: 9.20

###

Assay: Acute toxicity in zebra fish embryos assessed as lethality measured every 24 hrs for 72 hrs
Set-up: species or system Danio rerio
Conditions: zebrafish
In this section, each of the compounds is paired with its reported LC50 at 72 h.

{"columns": ["Compound", "Quantity Kind", "Result Value"],
 "data": [
  ["CC1=CC2Cc3nc4cc(Cl)ccc4c(NCCCCCCCCC(=O)N4CCNC(=O)C4)c3C(C1)C2 (stereo not drawn)", "LC50 at 72 h", "> 100 µM"],
  ["CC1=CC2Cc3nc4cc(Cl)ccc4c(N)c3C(C1)C2 (racemic)", "LC50 at 72 h", "20.9 µM"],
  ["CC1=CC2Cc3nc4cc(Cl)ccc4c(NCCCCCCCCCNC(=O)c4cc(O)cc(O)c4)c3C(C1)C2 (stereo not drawn)", "LC50 at 72 h", "> 100 µM"]
]}

Okay, next one:
q: Please report the recorded LC50 at 72 h for CC1=CC2Cc3nc4cc(Cl)ccc4c(NCCCCCCCCCNS(=O)(=O)c4cn[nH]c4)c3C(C1)C2 (stereo not drawn) .
a: > 100 µM

###

Reported Ratio IC50 by item:
Target: Acetylcholinesterase (Homo sapiens, UniProt P22303)
Sequence (P22303 whole entry): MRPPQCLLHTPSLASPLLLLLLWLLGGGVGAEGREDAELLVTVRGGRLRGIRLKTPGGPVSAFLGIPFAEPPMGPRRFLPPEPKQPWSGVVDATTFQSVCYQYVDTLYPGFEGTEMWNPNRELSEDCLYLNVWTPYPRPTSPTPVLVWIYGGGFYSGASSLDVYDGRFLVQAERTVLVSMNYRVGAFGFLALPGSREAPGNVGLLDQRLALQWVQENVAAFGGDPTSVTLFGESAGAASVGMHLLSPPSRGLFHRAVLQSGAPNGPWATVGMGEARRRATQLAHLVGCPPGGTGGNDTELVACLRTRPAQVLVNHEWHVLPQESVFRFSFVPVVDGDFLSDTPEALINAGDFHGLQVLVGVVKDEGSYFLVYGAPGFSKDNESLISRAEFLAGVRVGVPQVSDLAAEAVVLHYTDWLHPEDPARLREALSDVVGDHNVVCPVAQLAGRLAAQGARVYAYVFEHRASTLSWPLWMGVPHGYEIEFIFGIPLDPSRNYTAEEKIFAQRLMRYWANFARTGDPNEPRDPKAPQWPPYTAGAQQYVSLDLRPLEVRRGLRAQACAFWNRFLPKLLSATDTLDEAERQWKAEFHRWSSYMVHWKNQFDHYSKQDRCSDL
Experiment: Potency index, ratio of rhein-huprine hybrid IC50 to test compound IC50 for inhibition of human recombinant AChE using acetylthiocholine iodide as a substrate preincubated for 20 mins followed by substrate addition by spectrophotometric analysis

The cases that follow already have their Ratio IC50 on record.
{"columns": ["Compound", "Ratio IC50"],
 "data": [
  ["CC1=CC2Cc3nc4cc(Cl)ccc4c(NCCCCCCCCCNC(=O)c4cc(O)cc(O)c4)c3C(C1)C2 (configuration not stated)", "< 9"],
  ["CC1=CC2Cc3nc4cc(Cl)ccc4c(NCCCCCCCCC(=O)Nc4cn[nH]c4)c3C(C1)C2 (configuration not stated)", "< 9"],
  ["CC1=CC2Cc3nc4cc(Cl)ccc4c(NCCCCCCCCCNS(=O)(=O)c4cn[nH]c4)c3C(C1)C2 (configuration not stated)", "< 9"],
  ["CC1=CC2Cc3nc4cc(Cl)ccc4c(NCCCCCCCCC(=O)NCc4cc[nH]c(=O)c4)c3C(C1)C2 (configuration not stated)", "< 9"],
  ["CC1=CC2Cc3nc4cc(Cl)ccc4c(NCCCCCCCCC(=O)N4CCNC(=O)C4)c3C(C1)C2 (configuration not stated)", "< 9"]
]}

q: Param item = COc1cc(CNC(=O)CCCCCCCCNc2c3c(nc4cc(Cl)ccc24)CC2C=C(C)CC3C2)ccn1 (configuration not stated) ; retrieve measured Ratio IC50.
a: < 9

q: Data request, read-out Ratio IC50, for CC1=CC2Cc3nc4cc(Cl)ccc4c(NCCCCCCCCCNC(=O)c4ccc[nH]c4=O)c3C(C1)C2 (configuration not stated)
a: < 9
